molecular target: Human IgG (HIgG) (human); assay: batch adsorption isotherm, PBS pH 7.4, HWRGWV resin at 0.080 mmol/g, Langmuir fit
No end group written: not given here.
Outcome measure: Kd (µM)
Give bare numbers, in µM.

Report Kd for HWRGWVA-{Toyopearl AF‑Amino‑650 resin} please. 7.25
